This collection of values is drawn from paper PMC7698453.

Give measured IC50 at 3 days for each item. Keep answers brief.
Assay: Sulforhodamine B cytotoxicity assay, HT29
Format: cell-based
Settings: human, HT29 colorectal adenocarcinoma cells; SRB assay, tested 1-30 µM

Prompt: Entry CC1(C)C=Cc2c(ccc(C(=O)/C=C/c3ccc(OCc4ccccc4)cc3)c2O)O1 [Compound 1] : reported IC50 at 3 days = ?
Completion: > 30 µM

Prompt: And O=C1c2ccc(O)cc2C(=O)c2c(O)ccc(O)c21 [Compound 3, 1,4,6-trihydroxyanthracene-9,10-dione] ?
Completion: > 30 µM

Prompt: And COC(=O)C(Cc1ccc2c(c1OC)C(=O)c1cccc(OC)c1C2=O)C(=O)OC [Compound 2] ?
Completion: > 30 µM

Prompt: And COc1ccc(/C=C/C(=O)c2ccc3c(c2O)C=CC(C)(C)O3)cc1 [Compound 5, 4-methoxylonchocarpin] ?
Completion: 20.2 µM

====

Give measured IC50 at 3 days for each item. Keep answers brief.
Test: Sulforhodamine B cytotoxicity assay, A2780
Format: cell-based
Details: human, A2780 ovarian carcinoma cells; SRB assay, tested 1-30 µM

Prompt: Entry O=C1c2ccc(O)cc2C(=O)c2c(O)ccc(O)c21 [Compound 3, 1,4,6-trihydroxyanthracene-9,10-dione] : reported IC50 at 3 days = ?
Completion: > 30 µM

Prompt: And COc1ccc(/C=C/C(=O)c2ccc3c(c2O)C=CC(C)(C)O3)cc1 [Compound 5, 4-methoxylonchocarpin] ?
Completion: 25.4 µM

Prompt: And COC(=O)C(Cc1ccc2c(c1OC)C(=O)c1cccc(OC)c1C2=O)C(=O)OC [Compound 2] ?
Completion: > 30 µM

Prompt: And CC1(C)C=Cc2c(ccc(C(=O)/C=C/c3ccc(OCc4ccccc4)cc3)c2O)O1 [Compound 1] ?
Completion: > 30 µM

====

Molecular target: AChE (from Electrophorus electricus) (Electrophorus electricus)
Construct: purchased Merck (Darmstadt, Germany)
Sequence (O42275 24-633): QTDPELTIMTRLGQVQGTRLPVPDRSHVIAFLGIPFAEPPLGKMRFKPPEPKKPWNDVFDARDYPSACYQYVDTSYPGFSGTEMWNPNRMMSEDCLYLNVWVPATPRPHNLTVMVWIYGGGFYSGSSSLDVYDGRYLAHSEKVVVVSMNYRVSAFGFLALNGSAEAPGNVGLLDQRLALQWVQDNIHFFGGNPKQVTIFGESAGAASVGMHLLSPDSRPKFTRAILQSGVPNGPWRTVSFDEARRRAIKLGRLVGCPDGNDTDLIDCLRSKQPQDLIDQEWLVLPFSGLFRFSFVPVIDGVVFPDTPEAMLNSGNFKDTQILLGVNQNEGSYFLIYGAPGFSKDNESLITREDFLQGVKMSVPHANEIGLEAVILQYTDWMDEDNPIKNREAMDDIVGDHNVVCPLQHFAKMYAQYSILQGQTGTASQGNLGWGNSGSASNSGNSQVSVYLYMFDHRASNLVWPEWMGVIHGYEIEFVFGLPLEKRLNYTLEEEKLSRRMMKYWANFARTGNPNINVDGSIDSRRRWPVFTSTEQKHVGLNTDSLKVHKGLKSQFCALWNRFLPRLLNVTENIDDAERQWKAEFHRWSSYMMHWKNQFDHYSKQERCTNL
Test: biochemical
Format: biochemical
Conditions: from Lineweaver–Burk, Dixon and Cornish–Bowden plots
Quantity Measured: pKi
Scale explanation: pKi corresponds to minus log10 of a concentration expressed in moles per litre.

Prompt: Entry CC1(C)C=Cc2c(ccc(C(=O)/C=C/c3ccc(OCc4ccccc4)cc3)c2O)O1 [Compound 1] : reported pKi = ?
Completion: 5.27

====

Assay: Sulforhodamine B cytotoxicity assay, SW1736
Type: cell-based
Conditions: human, SW1736 thyroid carcinoma cells; SRB assay, tested 1-30 µM
Give measured IC50 at 3 days for each item. Keep answers brief.

Prompt: Entry CC1(C)C=Cc2c(ccc(C(=O)/C=C/c3ccc(OCc4ccccc4)cc3)c2O)O1 : reported IC50 at 3 days = ?
Completion: > 30 µM

Prompt: And O=C1c2ccc(O)cc2C(=O)c2c(O)ccc(O)c21 [Compound 3, 1,4,6-trihydroxyanthracene-9,10-dione] ?
Completion: > 30 µM

Prompt: And COC(=O)C(Cc1ccc2c(c1OC)C(=O)c1cccc(OC)c1C2=O)C(=O)OC ?
Completion: > 30 µM

Prompt: And COc1ccc(/C=C/C(=O)c2ccc3c(c2O)C=CC(C)(C)O3)cc1 ?
Completion: 26.2 µM
